Test target: T1, recombinant human TfR1 (transferrin receptor protein 1) (human, UniProt P02786 89-760)
T1 construct: Recombinant protein in SPR and ELISA; they were assigned to this molecule; also called hTfR1; huTfR1
T1 sequence (P02786 89-760 limits assumed): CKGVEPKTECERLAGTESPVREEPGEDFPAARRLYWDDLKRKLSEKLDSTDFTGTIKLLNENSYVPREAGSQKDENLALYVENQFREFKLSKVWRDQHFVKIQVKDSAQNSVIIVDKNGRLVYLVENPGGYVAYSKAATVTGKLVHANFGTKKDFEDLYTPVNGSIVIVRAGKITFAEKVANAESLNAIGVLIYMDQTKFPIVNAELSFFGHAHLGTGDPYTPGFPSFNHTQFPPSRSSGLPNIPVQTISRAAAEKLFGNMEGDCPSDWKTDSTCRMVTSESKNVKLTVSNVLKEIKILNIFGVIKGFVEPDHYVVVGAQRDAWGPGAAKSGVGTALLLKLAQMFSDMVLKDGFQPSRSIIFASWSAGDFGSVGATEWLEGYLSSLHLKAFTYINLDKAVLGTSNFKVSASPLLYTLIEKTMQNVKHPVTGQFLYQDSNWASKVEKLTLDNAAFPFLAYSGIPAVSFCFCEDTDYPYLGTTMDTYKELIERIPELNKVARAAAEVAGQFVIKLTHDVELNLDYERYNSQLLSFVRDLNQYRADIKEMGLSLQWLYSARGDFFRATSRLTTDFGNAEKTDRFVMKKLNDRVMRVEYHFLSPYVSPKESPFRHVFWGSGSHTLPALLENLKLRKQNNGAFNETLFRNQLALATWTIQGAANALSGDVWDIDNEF
Method description: Table 14, unconjugated Fab, d0; method not named (values equal ELISA row of Table 13)
Observation type: Binding affinity

INPUT: Which Binding affinity value belongs to humanized anti-TfR Fab 3A4 VH3 (N54T)/Vκ4 (Fab, V domains shown, also called 3A4 (VH3-N54T/Vk4)) VH: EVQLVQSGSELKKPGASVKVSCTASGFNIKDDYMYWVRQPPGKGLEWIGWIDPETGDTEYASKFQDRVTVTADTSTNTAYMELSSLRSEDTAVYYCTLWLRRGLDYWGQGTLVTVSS VL: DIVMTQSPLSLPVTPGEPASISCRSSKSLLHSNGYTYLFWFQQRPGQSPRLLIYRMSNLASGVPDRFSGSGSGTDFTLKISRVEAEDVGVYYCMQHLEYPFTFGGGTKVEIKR ?
OUTPUT: 2.6 nM
